Biological target: Af SidA (Aspergillus fumigatus, UniProt E9QYP0)
Sequence (E9QYP0 whole entry): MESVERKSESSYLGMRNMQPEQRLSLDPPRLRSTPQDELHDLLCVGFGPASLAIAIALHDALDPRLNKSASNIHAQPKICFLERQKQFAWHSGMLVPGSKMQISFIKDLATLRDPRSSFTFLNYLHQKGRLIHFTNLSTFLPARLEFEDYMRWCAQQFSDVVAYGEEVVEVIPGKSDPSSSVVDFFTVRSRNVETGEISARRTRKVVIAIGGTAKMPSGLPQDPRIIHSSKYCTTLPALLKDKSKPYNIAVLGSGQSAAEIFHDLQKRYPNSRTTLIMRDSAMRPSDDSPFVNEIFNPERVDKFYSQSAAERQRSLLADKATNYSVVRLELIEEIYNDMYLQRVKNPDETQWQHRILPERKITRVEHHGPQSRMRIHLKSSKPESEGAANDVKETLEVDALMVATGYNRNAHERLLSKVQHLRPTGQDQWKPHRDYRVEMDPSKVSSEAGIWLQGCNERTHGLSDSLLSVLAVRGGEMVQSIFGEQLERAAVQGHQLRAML
Assay: Fluorescence polarization binding assay, Af SidA
Experimental Readout: Kd (µM)

>>> reported_measurement("CN(C)c1ccc2c(c1)Oc1cc(N(C)C)ccc1C21OC(=O)c2ccc(C(=O)NCCCCCC(=O)NCCCCCCOP(=O)(O)OP(=O)(O)OCC3OC(n4cnc5c(N)ncnc54)C(O)C3O)cc21 (centres unmarked)")
9
>>> reported_measurement("CN(C)c1ccc2c(c1)Oc1cc(N(C)C)ccc1C21OC(=O)c2cc(C(=O)NCCCCCC(=O)NCCCCCCOP(=O)(O)OP(=O)(O)OCC3OC(n4cnc5c(N)ncnc54)C(O)C3O)ccc21 (centres unmarked)")
2.1

###

Target: KMO (kynurenine 3-monooxygenase) (Pseudomonas fluorescens)
Sequence (Q84HF5 whole entry): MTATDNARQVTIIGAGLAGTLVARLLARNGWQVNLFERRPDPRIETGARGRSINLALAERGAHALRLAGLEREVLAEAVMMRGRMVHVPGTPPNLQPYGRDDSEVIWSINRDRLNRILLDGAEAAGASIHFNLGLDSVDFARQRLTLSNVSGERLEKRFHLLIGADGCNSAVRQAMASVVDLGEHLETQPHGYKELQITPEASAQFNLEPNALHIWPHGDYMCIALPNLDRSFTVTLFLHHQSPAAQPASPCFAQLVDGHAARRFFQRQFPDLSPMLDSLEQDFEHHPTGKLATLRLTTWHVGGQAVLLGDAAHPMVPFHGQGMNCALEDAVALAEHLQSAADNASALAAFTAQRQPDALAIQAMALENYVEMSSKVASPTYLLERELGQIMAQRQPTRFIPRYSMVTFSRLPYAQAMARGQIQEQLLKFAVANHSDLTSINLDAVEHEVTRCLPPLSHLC
Experiment: Fluorescence polarization binding assay, KMO
Experimental Readout: Kd (µM)

>>> reported_measurement("CN(C)c1ccc2c(c1)Oc1cc(N(C)C)ccc1C21OC(=O)c2cc(C(=O)NCCCCCC(=O)NCCCCCCOP(=O)(O)OP(=O)(O)OCC3OC(n4cnc5c(N)ncnc54)C(O)C3O)ccc21 (centres unmarked) [Chromophore 4]")
0.6
>>> reported_measurement("CN(C)c1ccc2c(c1)Oc1cc(N(C)C)ccc1C21OC(=O)c2ccc(C(=O)NCCCCCC(=O)NCCCCCCOP(=O)(O)OP(=O)(O)OCC3OC(n4cnc5c(N)ncnc54)C(O)C3O)cc21 (centres unmarked) [Chromophore 3]")
10
